For each of the binders below, state its Classic ELISA (normalized to XAB1 Fab).
subject_of_test: T1, human IL-17A (construct not specified) (human, UniProt Q16552 24-155, limits assumed)
T1 construct: also called huIL-17A
T1 sequence: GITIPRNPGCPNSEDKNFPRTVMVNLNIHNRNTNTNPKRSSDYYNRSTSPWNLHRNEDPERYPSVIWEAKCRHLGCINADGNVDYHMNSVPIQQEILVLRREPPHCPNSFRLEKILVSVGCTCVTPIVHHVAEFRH
assay_comment: ELISA, coated huIL-17A, crude Fab extract
# number then unit; no other words

// sample MB435 (Fab, V domains shown) VH: EVQLVESGGDLVQPGGSLRLSCAASGFTFSSYWMSWVRQAPGKGLEWVANIKQDGSEKYYVDSVKGRFTISRDNAKNSLYLQMNSLRAEDTAVYYCARDRGSLYYWGQGTLVTVSS VL: AIQLTQSPSSLSASVGDRVTITCRPSQGINWELAWYQQKPGKAPKLLIYDASSLENGVPSRFSGSGSGTDFTLTISSLQPEDFATYYCQQFNSYPLTFGGGTKVEIK , its Classic ELISA (normalized to XAB1 Fab) was 2.7 fold

// sample MB444 (Fab, V domains shown, Fab variant of XAB1) VH: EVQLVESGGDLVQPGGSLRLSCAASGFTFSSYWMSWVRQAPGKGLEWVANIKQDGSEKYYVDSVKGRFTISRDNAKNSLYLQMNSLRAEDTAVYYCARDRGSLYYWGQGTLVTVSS VL: AIQLTQSPSSLSASVGDRVTITCRPSQGILWELAWYQQKPGKAPKLLIYDASSLENGVPSRFSGSGSGTDFTLTISSLQPEDFATYYCQQFNSYPLTFGGGTKVEIK , its Classic ELISA (normalized to XAB1 Fab) was 3.2 fold

// sample MB438 (Fab, V domains shown, Fab variant of XAB1) VH: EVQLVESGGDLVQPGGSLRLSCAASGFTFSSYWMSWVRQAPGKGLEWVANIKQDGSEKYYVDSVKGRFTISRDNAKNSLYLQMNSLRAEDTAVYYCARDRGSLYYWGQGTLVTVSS VL: AIQLTQSPSSLSASVGDRVTITCRPSQGIPYALAWYQQKPGKAPKLLIYDASSLENGVPSRFSGSGSGTDFTLTISSLQPEDFATYYCQQFNSYPLTFGGGTKVEIK , its Classic ELISA (normalized to XAB1 Fab) was 2.7 fold
